- Assay remarks: inhibitors of E-selectin induction by TNFa, primary screen, imaging, HUVEC, immunofluorescence, MLSMR starter and 10KST1 sets (AID 487);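 note: signal is fraction of cell area covered by stained E-selectin grains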
- Assay conditions: HUVEC TNFalpha-induced E-selectin immunofluorescence imaging, at 2 µM; stronger effect = higher value
Documented inhibition across a set of compounds
Value type: inhibition (%)

CCOc1ccc(NC(=O)Cn2nnc(-c3ccccc3F)n2)cc1	-32.4
O=C(NCCc1c[nH]c2ccccc12)c1ccc(S(=O)(=O)NCc2ccco2)cc1	-42.9
CS(=O)(=O)N1CCN(c2ccccc2NC(=O)c2ccc(-c3ccc(Cl)cc3Cl)o2)CC1	24.8
O=C(NCc1ccccn1)c1ccc(=O)oc1	-1.5
CC(NC(=O)CSc1nnc(COc2ccccc2)o1)c1ccccc1 (stereo unspecified)	-35.2
COc1cccc(OCc2nc3ccccc3[nH]2)c1	-75.3
CC(=O)c1cc(Cl)ccc1OC(=O)c1ccco1	-48.1
CC1(C)NC(=O)N(CN2C(=O)NC(C)(C)C2=O)C1=O	28.8
CC1CCN(c2[nH]c(=S)c(C#N)c3c2CCCC3)CC1	-5.3
CSc1nc2[nH]c3c(c2c2nncn12)CC(C)(C)OC3	-169
COCCCNC(=O)c1ccccc1NS(=O)(=O)c1ccc(C)cc1	-66.6

----------
- System under test: Voltage-gated potassium channel subunit beta-2 (Rattus norvegicus)
- Assay remarks: KvBeta positive modulators, primary screen, biochemical, NADPH fluorescence (AID 623);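 note: fluorescence intensity change per second fitted from 20 to 320 s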
- Assay conditions: Recombinant KvBeta, NADPH fluorescence decrease slope, 10 min; at 10 µM; stronger effect = lower value
NADPH fluorescence slope for assorted compounds
Value type: NADPH fluorescence slope

COc1ccc(-n2c(SCc3ccc(C#N)cc3)nnc2-c2ccccn2)cc1	-3.8e-05
CSc1nc2c(c(=O)n1C)SC(C)C2 (stereo not given)	-4.8e-05
CCSc1nnc(NC(=O)NC(CC)(C(F)(F)F)C(F)(F)F)s1	-5e-05
N#CC(C#N)C(c1ccsc1)c1c(-c2ccccc2)[nH][nH]c1=O (stereo not given)	-6.9e-05
CCCOc1ccc2ccccc2c1/C=N/n1cnnc1	-1.6e-05
C=CCN(CC=C)c1nc2ccccc2nc1C(C#N)C(=O)OC(C)C (stereo not given)	-4.8e-05
Cc1ccc(-n2ncc3c(NCCCOC(C)C)ncnc32)c(C)c1	-4.3e-05
Cc1noc(C)c1CSc1nnc2scc(-c3ccc(Cl)cc3)n12	-2.1e-05
O=C(NC1CC1)C1CCN(c2ccc(S(=O)(=O)N3CCOCC3)cc2)CC1	-5e-06
CCOC(=O)CNC(=O)CSc1nc(N)cc(N)n1	2.9e-05
C(=N\n1cnnc1)/c1cccc(Oc2ccccc2)c1	-5.4e-05
Cc1cc(NC(CC(C)C)C(=O)O)nc(Cc2ccccc2)n1 (stereo not given)	-0.000155
COC(=O)/C=c1/s/c(=C(/C#N)C(=O)N2CCCCC2)n(-c2ccccc2)c1=O	-1.7e-05
COc1ccc(C2CC(c3ccc(Cl)cc3Cl)Nc3nc(N)nn32)cc1 (stereo not given)	1.1e-05
Clc1ccc(-n2ncc3c(NCc4ccccn4)ncnc32)cc1	5.6e-06
CCCN1CCN(C(=O)Cn2c(=O)oc3cc(S(=O)(=O)NCc4ccccc4)ccc32)CC1	-2.7e-05
CCCOc1ccc(NC2=CC(=O)CC(C)(C)C2)cc1	-4.9e-05
C=CCOc1ccc(/C(O)=C2\C(=O)C(=O)N(CCN(C)C)C2c2cccs2)cc1 (stereo not given)	-6.6e-05
COc1cccc(-c2noc(C3CCCN(C(=O)Cc4ccccc4)C3)n2)c1 (stereo not given)	-8.5e-06
CCOc1cc(C(=O)Nc2ncccn2)cc(OCC)c1OCC	-2.8e-05
O=C1CC(c2ccccc2)Cc2nc(N3CCc4ccccc43)ncc21 (stereo not given)	-1.7e-05
COC(=O)CCn1nnc(-c2cccs2)n1	-5.1e-05
N#Cc1cc(Oc2cccc3cccnc23)c(-n2nnc3ccccc32)cc1C#N	-2.5e-05
CCOc1ccc(C2C=C(c3ccccc3)Nc3ncnn32)cc1 (stereo not given)	-6.4e-06
COc1ccc(NC(=O)CSc2c(C)nn(-c3nnc(C)c(=O)[nH]3)c2C)cc1	2e-05
CCN(CC)CCn1c(=N)n(CCO)c2ccccc21	1.5e-05
O=C(CSc1nnc(-c2ccncc2)o1)Oc1ccccc1	-5.2e-05
CC(=O)[C@H]1[C@@H]2C(=O)N(c3cccc(Cl)c3)C(=O)[C@@H]2[C@H]2c3ccccc3C=CN21	-3.6e-05
O=C(CSc1nc2ccccc2c(=O)n1CC1CCCCC1)N1CCOCC1	-8.1e-05
COC(=O)CC1SCCNC1=O (stereo not given)	2e-05
O=C(CN(c1ccc(F)cc1)S(=O)(=O)c1ccc2c(c1)OCCO2)Nc1ccc2c(c1)OCO2	-3.3e-05
CCOC(=O)c1ccc(NC(=O)CSCc2ccco2)cc1	-2.1e-06
CN1CCc2c(sc3c2c(=O)n(-c2cccc(Cl)c2)c2nncn32)C1	-3.5e-05
CC1(C)C2CCC1(C)C(NC(=O)CCN1CCCCC1)C2 (stereo not given)	-4.2e-05
CN1CC2(C)CN(C(c3ccccc3)c3ccccc3)CC(C)(C1)C2O (stereo not given)	-8.8e-05
COc1cc(S(=O)(=O)n2nnc3ccccc32)c(OC)cc1Cl	3.8e-05
CCOC(=O)c1[nH]c2ccc(C)cc2c1N	-4.7e-05
COc1cc(C2c3c(oc4c(C)cc(C)cc4c3=O)C(=O)N2Cc2cccnc2)ccc1O (stereo not given)	-3.3e-05
CCOc1ccc(C2C(C#N)=C(N)Oc3cc(C)n(CCN4CCOCC4)c(=O)c32)cc1OCC (stereo not given)	-4.1e-05
O=C(O)CCCC(=O)N1CCN(C(c2ccccc2)c2ccccc2)CC1	-2.2e-05
Cc1nc2sc(C(c3cccs3)N3CC(C)CC(C)C3)c(O)n2n1 (stereo not given)	4.4e-06
CCCCCOC(=O)Cc1c(C)nc(-c2ccccc2)[nH]c1=O	-7.9e-05
CCOC(=O)c1[nH]c2ccccc2c1N=C(C)N(CC)CC	-3.5e-05
CCCCC(=O)c1c(C)cc(C)[nH]c1=O	-7.1e-05
CCCC1(C(=O)OCC)NC(c2ccc(N(C)C)cc2)C2C(=O)N(c3ccc(F)cc3)C(=O)C21 (stereo not given)	1e-06

Values from PubChem BioAssay
